Below, each entry is listed alongside its reported logP.
// no unit, no text: just the number

>>> print(df.to_string())
                    smi  value_reported
0      COC(=O)Nc1ccccc1            1.75
1  COC(=O)Nc1ccc(Cl)cc1            2.55

Query :: Consider the compound "C#CCOC(=O)Nc1ccc(OCC)c(OCC)c1" . State its measured logP.
Result :: 2.68

Query :: Read off the recorded logP for "COC(=O)Nc1ccccc1Br"
Result :: 2.3

---

Here the recorded logP is given for each entry.
Answer with the value's number alone.

>>> df
                              smi  value_reported
0    CCOc1ccc(NC(=O)OCCC#N)cc1OCC            2.07
1               COC(=O)Nc1ccccc1F            1.66
2              COC(=O)Nc1ccccc1Cl            2.16
3              COC(=O)Nc1ccccc1OC            1.84
4  COC(=O)Nc1ccc([N+](=O)[O-])cc1            2.12

Query :: For the compound "CCOc1ccc(NC(=O)OC)cc1OCC" , give its measured logP value.
Result :: 2.1

Query :: Give the value of logP reported for the following: "COC(=O)Nc1ccccc1[N+](=O)[O-]"
Result :: 2.1

Query :: Fill in logP for record "COC(=O)Nc1cccc(C#N)c1"
Result :: 1.77

Query :: Identify measured logP corresponding to "COC(=O)Nc1ccc(C#N)cc1"
Result :: 1.82

Query :: Kindly indicate its recorded logP. Item: "CCOc1ccc(NC(=O)OCC(C)C)cc1OCC"
Result :: 3.36

Query :: Identify measured logP associated with "CCCCc1ccc(NC(=O)OC)cc1"
Result :: 3.69

These measurements were taken from the OPERA property sets (Mansouri et al. 2018).
